Value source: the supplement of paper PMC11451515

- Tested on: NOMO1
- protocol: cell viability relative to DMSO control; higher = less cytotoxic
- recordedConditions: HPLM + 10% dialyzed FBS; 48 h; 0.0632 µM
assayMetric: cell viability (%)
Numbers only, in %.

Completed entries (count: 8):
- compound: "CN[C@@H](C)C(=O)N[C@H]1CN(C(=O)CC(C)C)CC[C@H]2CC[C@@H](C(=O)NC(c3ccccc3)c3ccccc3)N2C1=O"
  systemUnderTest: "NOMO1"
  measureUnit: "%"
  cell viability: 82.9
- compound: "Cc1ccc([S+](=O)([O-])Nc2nc3ccccc3nc2Nc2ccc3nsnc3c2)cc1"
  systemUnderTest: "NOMO1"
  measureUnit: "%"
  cell viability: 116
- compound: "O=C(O)CCn1c2c(c3ccccc31)C[C@H](N[S+](=O)([O-])c1ccc(F)cc1)CC2"
  systemUnderTest: "NOMO1"
  measureUnit: "%"
  cell viability: 113
- compound: "Cc1cc(Nc2cc(CN3CCOCC3)c3nc(C)c(Cc4ccc(Cl)cc4F)n3n2)[nH]n1"
  systemUnderTest: "NOMO1"
  measureUnit: "%"
  cell viability: 137
- compound: "OC(=O)C(CC/1=C/C(=O)NC2=CC=CC=C12)NC(=O)C3=CC=C(Cl)C=C3 (stereo unspecified)"
  systemUnderTest: "NOMO1"
  measureUnit: "%"
  cell viability: 130
- compound: "CN(C)CCOc1ccc(-c2nc(-c3ccncc3)c(-c3ccc4c(c3)CC/C4=N\\O)[nH]2)cc1"
  systemUnderTest: "NOMO1"
  measureUnit: "%"
  cell viability: 127
- compound: "C[C@]12CC[C@H]3[C@@H](CCC/4=C/C(=O)CC[C@]34C)[C@@H]1CC[C@@H]2O"
  systemUnderTest: "NOMO1"
  measureUnit: "%"
  cell viability: 136
- compound: "CCCCCCCCCC(=O)N[C@@H](Cc1c[nH]c2ccccc12)C(=O)N[C@H](CC(N)=O)C(=O)N[C@@H](CC(=O)O)C(=O)N[C@@H]1C(=O)NCC(=O)N[C@@H](CCCN)C(=O)N[C@@H](CC(=O)O)C(=O)N[C@H](C)C(=O)N[C@@H](CC(=O)O)C(=O)NCC(=O)N[C@H](CO)C(=O)N[C@@H]([C@@H](C)CC(=O)O)C(=O)N[C@@H](CC(=O)c2ccccc2N)C(=O)O[C@@H]1C"
  systemUnderTest: "NOMO1"
  measureUnit: "%"
  cell viability: 108

Record cell viability per entry; entries follow.
1. O=C1Nc2ccc(I)cc2/C1=C/c1cc(Br)c(O)c(Br)c1
2. Nc1ncnc2ccccc12
3. CN1C(=O)C[C@H](C(=O)N[C@@H](Cc2cnc[nH]2)C(=O)N2CCC[C@H]2C(N)=O)NC1=O
4. CCC\C1=C\C(=O)NC(=S)N1
5. COCCOc1nc(-c2ccc(Cl)c(Cl)c2)n(-c2ccc(NC(=O)CCl)cc2)n1
6. C[C@]12CC[C@H]3[C@@H](C\C=C/4C[C@@H](O)CC[C@]34C)[C@@H]1CCC2=O
7. CC(C)C[C@H](NC(=O)CNC(=O)c1cc(Cl)ccc1Cl)B(O)O

[out]
[109, 97.8, 116, 113, 113, 147, 125]

[in] cell viability for `Nc1nc(N)c2nc(-c3cccc(O)c3)c(-c3cccc(O)c3)nc2n1` ?
[out] 116
